Species: Homo sapiens
Assay: Selective ratio of IC50 for human TCPTP to IC50 for recombinant human PTP1B
RESULT_TYPE: Ratio IC50

CCCOc1ccc(NC(=O)NCc2cc(OCC)c(NS(C)(=O)=O)cc2OCC)cc1C(=O)OC	17.3

I = CCCNC(=O)c1cc(NC(=O)NCc2cc(OCC)c(NS(C)(=O)=O)cc2OCC)ccc1OCC
II = CCOc1cc(NS(C)(=O)=O)c(OCC)cc1CNC(=O)Nc1ccc(OCC)c(C(=O)OC)c1
q: Between I and II , which one shows the larger Ratio IC50 value? Bench note: the answer is the label of the chosen record.
a: II
(II: 36, I: 10.9)

---

Target: Tyrosine-protein phosphatase non-receptor type 6 (Homo sapiens)
Sequence (P29350 whole entry): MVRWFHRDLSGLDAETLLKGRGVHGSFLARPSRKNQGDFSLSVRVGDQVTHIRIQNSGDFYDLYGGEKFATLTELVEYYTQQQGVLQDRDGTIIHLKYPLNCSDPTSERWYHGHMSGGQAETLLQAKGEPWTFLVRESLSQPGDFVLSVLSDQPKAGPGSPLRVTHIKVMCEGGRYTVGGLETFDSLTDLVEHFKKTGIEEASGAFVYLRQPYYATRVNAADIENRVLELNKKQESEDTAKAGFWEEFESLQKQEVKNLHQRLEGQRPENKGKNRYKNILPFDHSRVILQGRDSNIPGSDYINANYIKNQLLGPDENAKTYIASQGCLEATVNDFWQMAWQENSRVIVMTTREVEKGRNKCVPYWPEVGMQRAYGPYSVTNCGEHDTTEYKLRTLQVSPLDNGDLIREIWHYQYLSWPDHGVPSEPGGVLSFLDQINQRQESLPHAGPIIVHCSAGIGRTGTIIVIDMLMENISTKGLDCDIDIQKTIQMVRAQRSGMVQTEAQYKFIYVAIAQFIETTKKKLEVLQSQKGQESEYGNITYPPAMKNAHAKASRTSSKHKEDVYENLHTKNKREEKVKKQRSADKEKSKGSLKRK
RESULT_TYPE: pIC50
Remember, pIC50 is on a log scale: it is -log10 of the molar concentration.

q: Quick check: pIC50 of CCCNC(=O)c1cc(NC(=O)NCc2cc(OCC)c(NS(C)(=O)=O)cc2OCC)ccc1OCC ?
a: 5.06

---

Target: Tyrosine-protein phosphatase non-receptor type 1 (Homo sapiens, UniProt P18031)
Assay: Inhibition of recombinant human PTP1B using pNNP as substrate after 30 mins
RESULT_TYPE: IC50 (µM)

A = CCNC(=O)c1cc(NC(=O)NCc2cc(OCC)c(NS(C)(=O)=O)cc2OCC)ccc1OCC
B = CCOc1cc(NS(C)(=O)=O)c(OCC)cc1CNC(=O)Nc1ccc(OCC)c(C(=O)Nc2cccc(OC)c2)c1
C = CCOc1cc(NS(C)(=O)=O)c(OCC)cc1CNC(=O)Nc1ccc(OCC)c(C(=O)OC)c1
q: Please list these compounds in decreasing order of IC50. Your task in answering is to list the labels in the requested order.
a: B, A, C
(B: 0.981 µM, A: 0.169 µM, C: 0.0186 µM)

---

Biological target: Tyrosine-protein phosphatase non-receptor type 1 (Homo sapiens, UniProt P18031)
Sequence (P18031 whole entry): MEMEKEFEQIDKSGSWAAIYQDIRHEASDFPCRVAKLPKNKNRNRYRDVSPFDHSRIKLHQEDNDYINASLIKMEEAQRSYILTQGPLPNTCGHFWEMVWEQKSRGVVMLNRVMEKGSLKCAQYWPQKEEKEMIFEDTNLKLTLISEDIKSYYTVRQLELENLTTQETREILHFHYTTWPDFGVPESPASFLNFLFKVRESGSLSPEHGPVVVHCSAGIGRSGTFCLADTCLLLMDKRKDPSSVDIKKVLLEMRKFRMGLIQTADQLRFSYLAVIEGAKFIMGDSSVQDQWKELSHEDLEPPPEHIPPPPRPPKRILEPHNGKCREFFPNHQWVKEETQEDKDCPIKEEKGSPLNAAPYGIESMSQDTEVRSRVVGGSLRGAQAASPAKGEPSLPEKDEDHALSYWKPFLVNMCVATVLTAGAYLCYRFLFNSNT
Experiment: Inhibition of recombinant human PTP1B using pNNP as substrate after 30 mins
RESULT_TYPE: IC50 (nM)

CCCOc1ccc(NC(=O)NCc2cc(OCC)c(NS(C)(=O)=O)cc2OCC)cc1C(=O)OC	68.2
CCOc1cc(NS(C)(=O)=O)c(OCC)cc1CNC(=O)Nc1ccc(OCC)c(C(=O)NC)c1	166
CCOc1cc(NS(C)(=O)=O)c(OCC)cc1CNC(=O)Nc1ccc(OCC)c(C(=O)Nc2ccc(C)cc2)c1	209

P = CCCCOc1ccc(NC(=O)NCc2cc(OCC)c(NS(C)(=O)=O)cc2OCC)cc1C(=O)OC
Q = CCCNC(=O)c1cc(NC(=O)NCc2cc(OCC)c(NS(C)(=O)=O)cc2OCC)ccc1OCC
q: Between P and Q , which one shows the larger IC50 value? Bench note: the answer is the label of the chosen record.
a: P

Provenance of the data: ChEMBL document CHEMBL4145460
